# Tested on: SR leukemia
# Assay Remarks: NCI-60 one-dose screen, 48 h (100 = growth as untreated, 0 = no growth, -100 = all killed)
# Stated Conditions: 10 µM unless noted
# Description: Growth inhibition of the SR human tumor cell line is measured as a screen for anti-cancer activity. Cells are grown in 96 well plates and exposed to the test compound for 48 hours. Compounds are tested at a single concentration, which is 10^-5 M for most compounds. The reported endpoint is percent growth (GI% or GIPRCNT), where numbers from 0 - 100% represent growth inhibition, and numbers from -100% - 0 represent cell death. For example, a value of 40 represents 60% growth inhibition. […]
About 83,000 compounds went through this panel and 20% of them were active in at least one assay; those are over-represented in the sample as a whole.
Binary call on growth with cut-off 40%: strictly below means rule met, and equality or higher means rule not met.

COc1ccc(/C=C\c2cc(OC)c(OC)c(OC)c2)cc1OCC(=O)Nc1nc2ccc(F)cc2s1 ... rule met
O=c1[nH]cc(N(CCCl)CCCl)c(=O)[nH]1 ... rule met

Problem: Hello, I'm reviewing records and need to know if growth of COc1cc(C=Nc2cc(Cl)cc(Cl)c2)ccc1N(CCCl)CCCl is below 40%. Could you check?
Result: rule not met

Problem: Hello, I'm reviewing records and need to know if growth of CC[C@H](C)[C@H](NC(=O)[C@H]1CCCCN1C)C(=O)N(C)[C@H](C[C@@H](OC(C)=O)c1nc(C(=O)NC23CC(C(=O)OC)(C2)C3)cs1)C(C)C is below 40%. Could you check?
Result: rule met

====

# System: A498 renal
# Assay Remarks: NCI-60 one-dose screen, 48 h (100 = growth as untreated, 0 = no growth, -100 = all killed)
# Stated Conditions: 10 µM
The panel holds about 83,000 compounds, 20% with a hit somewhere; the sample as a whole holds those more often.
Property Measured: growth (%)
Hi! Could you send only the number? It should be in %, unit omitted.

COc1ccc(N(CC(=O)NCCC[Te]c2ccccc2)C(=O)CCSC2=C(C)C(=O)c3ccccc3C2=O)cc1 ... -32.2
c1cnc2[nH]cc(-c3csc(-c4cn(CCCCN5CCCCC5)c5ccccc45)n3)c2c1 ... 95.7

Problem: Fill in the recorded growth for this molecule, with A498 renal as test system: COC(=O)[C@@H](C)C[C@H](Cc1ccccc1)NC(=O)c1nc([C@@H](C[C@H](C(C)C)N(C)C(=O)[C@@H](NC(=O)[C@H]2CCCCN2C)C(C)C)OC(C)=O)sc1C
Result: -19.3

Problem: Fill in the recorded growth for this molecule, with A498 renal as test system: COC(=O)[C@]12CCC(C)(C)C[C@H]1[C@H]1C(=O)C[C@@H]3[C@@]4(C)C[C@@]5(CC(C)(C)[C@@H]4CC[C@@]3(C)[C@]1(C)CC2)OO[C@@](C)(C(F)(F)F)O5
Result: 78.2

Problem: Fill in the recorded growth for this molecule, with A498 renal as test system: COc1ccc(O)c(CNC(=O)CN2CCCC2=O)c1
Result: 93.6

====

# Tested on: CCRF-CEM leukemia
# Assay Remarks: NCI-60 one-dose screen, 48 h (100 = growth as untreated, 0 = no growth, -100 = all killed)
# Stated Conditions: 10 µM unless noted
The panel holds about 83,000 compounds, 20% with a hit somewhere; the sample as a whole holds those more often.
Property Measured: growth (%)
Hi! Could you send only the number? It should be in %, unit omitted.

CCCC(=O)O[C@@H]1C[C@H]2C[C@@H](O[C@@H]3O[C@@H](C)[C@@H](O)[C@@H](O)[C@H]3OC)C[C@@H](C[C@@H](C)/C=C/C=C\C[C@@H]3O[C@@H](C[C@@H]3C)[C@@H](O)C[C@H]3C[C@@]1(O)C(=O)O3)O2 ... 50.9
COc1ccc(/C=C\c2cc(OC)c(OC)c(OC)c2)cc1NC(=O)/C=C/c1ccc(OC)c(OC)c1 ... 12.1

Problem: Fill in the recorded growth for this molecule, with CCRF-CEM leukemia as test system: CC(=O)O[C@H](C[C@H](C(C)C)N(C)C(=O)[C@@H](NC(=O)[C@H]1CCCCN1C)C(C)C)c1cccc(C(=O)N[C@@H](Cc2ccccc2)C[C@H](C)C(=O)O)n1
Result: 5.5

Problem: Fill in the recorded growth for this molecule, with CCRF-CEM leukemia as test system: CCOP(=O)(Nc1ccc2c(c1)/C(=N/NC(N)=S)c1ccccc1-2)OCC
Result: 85.6

Problem: Fill in the recorded growth for this molecule, with CCRF-CEM leukemia as test system: COC(=O)[C@]12CCC(C)(C)C[C@H]1[C@H]1C(=O)C[C@@H]3[C@@]4(C)C[C@@]5(CC(C)(C)[C@@H]4CC[C@@]3(C)[C@]1(C)CC2)OO[C@@](C)(C(F)(F)F)O5
Result: 94.8

Problem: Fill in the recorded growth for this molecule, with CCRF-CEM leukemia as test system: CC[C@H](C)[C@H](NC(=O)[C@H]1CCCCN1C)C(=O)N(C)[C@H](C[C@@H](O)c1nc(C(=O)N[C@@H](Cc2ccccc2)C[C@H](C)C(=O)O)cs1)C(C)C
Result: 43.5

====

# Test system: PC-3 prostate
# Assay Remarks: NCI-60 one-dose screen, 48 h (100 = growth as untreated, 0 = no growth, -100 = all killed)
# Stated Conditions: 10 µM unless noted
Compounds without any hit were thinned out: in the full panel of roughly 83,000, 20% have a hit.
Classification by growth follows these ranges: bin 1: < 40%; bin 2: ≥ 40% and < 60%; bin 3: ≥ 60%

These solved cases illustrate the format of a correct answer.
O=C(c1ccccc1O)c1[nH]c(Cl)c(Cl)c1-n1c(C(=O)c2ccccc2O)cc(Cl)c1Cl ... bin 1
C[C@]12CCc3sc(NCCc4ccccc4)nc3C1=CC[C@@H]1[C@@H]2CC[C@]2(C)C(=O)CC[C@@H]12 ... bin 1

Query molecule follows.
Problem: Returns: class label. Input: COC(=O)[C@H](Cc1ccccc1)NNC(=O)c1csc([C@@H](C[C@H](C(C)C)N(C)C(=O)[C@@H](NC(=O)[C@H]2CCCCN2C)C2CC2)OC(C)=O)n1
Result: bin 1

====

# System: SK-MEL-28 melanoma
# Assay Remarks: NCI-60 one-dose screen, 48 h (100 = growth as untreated, 0 = no growth, -100 = all killed)
# Stated Conditions: 10 µM unless noted
This is part of a sample that, as a whole, favours compounds with a hit. Of some 83,000 tested, about 20% had one in any assay.
Property Measured: growth (%)
Hi! Could you send only the number? It should be in %, unit omitted.

Problem: Fill in the recorded growth for this compound, with SK-MEL-28 melanoma as test system: C=CC[n+]1ccc(-c2cc[n+](CC=C)cc2)cc1
Result: 102

Problem: Fill in the recorded growth for this compound, with SK-MEL-28 melanoma as test system: COc1cc(C=Nc2cccc(C(=O)O)c2)ccc1N(CCCl)CCCl
Result: 103

Problem: Fill in the recorded growth for this compound, with SK-MEL-28 melanoma as test system: O=[N+]([O-])c1cc(I)cc([N+](=O)[O-])c1
Result: 116

Problem: Fill in the recorded growth for this compound, with SK-MEL-28 melanoma as test system: O=C1NC(=O)C(=Cc2cn(CCCCCCn3c4ccccc4c(=O)c4ccccc43)c3ccccc23)C(=O)N1
Result: 102

Problem: Fill in the recorded growth for this compound, with SK-MEL-28 melanoma as test system: CC[C@H](NC(=O)[C@H]1CCCCN1C)C(=O)N(C)[C@H](C[C@@H](OC(C)=O)c1nc(C(=O)N[C@@H](Cc2ccccc2)C[C@H](C)C(=O)O)cs1)C(C)C
Result: 73.7

Problem: Fill in the recorded growth for this compound, with SK-MEL-28 melanoma as test system: O=[N+]([O-])c1ccc(OP(=O)(CCl)N(CCCl)CCCl)cc1 (stereo unspecified)
Result: 106

Problem: Fill in the recorded growth for this compound, with SK-MEL-28 melanoma as test system: CCC(CC)CC1(C)CC2(C)CCOC2OO1 (stereo unspecified)
Result: 109

Problem: Fill in the recorded growth for this compound, with SK-MEL-28 melanoma as test system: COC(=O)[C@@H](C)C[C@H](Cc1ccccc1)NC(=O)c1csc([C@@H](C[C@H](C(C)C)N(C)C(=O)[C@@H](NC(=O)[C@H]2CCCCN2C)C2CC2)OC(C)=O)n1
Result: 60.3

Problem: Fill in the recorded growth for this compound, with SK-MEL-28 melanoma as test system: O=C(O)C(Cl)(Cl)C(F)(F)F
Result: 110

Problem: Fill in the recorded growth for this compound, with SK-MEL-28 melanoma as test system: COc1ccc2c(c1)c(-c1nc(-c3c[nH]c4ncccc34)cs1)cn2CCCCN1CCCCC1
Result: -85.1

Problem: Fill in the recorded growth for this compound, with SK-MEL-28 melanoma as test system: CCCC(=O)O[C@@H]1C[C@H]2C[C@@H](O[C@@H]3O[C@@H](C)[C@@H](O)[C@@H](O)[C@H]3OC)C[C@@H](C[C@@H](C)/C=C/C=C\C[C@@H]3O[C@@H](C[C@@H]3C)[C@@H](O)C[C@H]3C[C@@]1(O)C(=O)O3)O2
Result: 71.5

Problem: Fill in the recorded growth for this compound, with SK-MEL-28 melanoma as test system: CC[C@H](C)[C@H](NC(=O)NC(C)(C)C)C(=O)N(C)[C@H](C[C@@H](OC(C)=O)c1nc(C(=O)N[C@@H](Cc2ccccc2)C[C@H](C)C(=O)OC)cs1)C(C)C
Result: 53.2
